Observed pIC50 for SARS-CoV-2 3CL-protease (Severe acute respiratory syndrome coronavirus 2, UniProt P0DTD1), reported per entry below.
pIC50: −log10 of the molar value.
Readout Type: pIC50

{"Smiles": "CC(C)C[C@@H](C(=O)N1C[C@]2(C[C@H]1C#N)C(=O)Nc1ccccc12)N(C)C(=O)c1cc2ccccn2n1", "Value": "6.00 to 7.00"}
{"Smiles": "CN(C(=O)c1cnn(-c2ccc(C(F)(F)F)cc2)c1)[C@@H](CC1CC1)C(=O)N1C[C@]2(C[C@H]1C#N)C(=O)Nc1ccccc12", "Value": "> 7.00"}
{"Smiles": "CC(C)C[C@@H](C(=O)N1C[C@]2(C[C@H]1C#N)C(=O)Nc1ccccc12)N(C)C(=O)[C@H]1CCN(C(=O)OC(C)(C)C)C1", "Value": "6.00 to 7.00"}

----------
biological target: SARS-CoV-2 3CL-protease (Severe acute respiratory syndrome coronavirus 2, UniProt P0DTD1)
pIC50: −log10 of the molar value.

{"Compound": "CN(C(=O)c1cc2c(F)cc(F)c(F)c2[nH]1)[C@@H](CC(C)(C)F)C(=O)N1C[C@]2(C[C@H]1C#N)C(=O)Nc1ncccc12 [Example 551]", "pIC50": "> 7.00"}
{"Compound": "CC(C)C[C@@H](C(=O)N1C[C@]2(C[C@H]1C#N)C(=O)Nc1ccccc12)N(C)C(=O)c1cccc2ccncc12 [Example 293]", "pIC50": "> 7.00"}
{"Compound": "CC(C)C[C@H](NC(=O)c1cc2c(F)cccc2[nH]1)C(=O)N1C[C@]2(C[C@H]1C#N)C(=O)Nc1cc(F)ccc12 [Example 530]", "pIC50": "> 7.00"}
{"Compound": "CC(C)C[C@@H](C(=O)N1C[C@]2(C[C@H]1C(=O)CO)C(=O)Nc1ccccc12)N(C)C(=O)c1cc2c(F)cc(F)c(F)c2[nH]1 [Example 158]", "pIC50": "< 6.00"}
{"Compound": "CC(C)C[C@@H](C(=O)N1C[C@]2(C[C@H]1C#N)C(=O)Nc1ccccc12)N(C)C(=O)c1ccnn1C [Example 203]", "pIC50": "> 7.00"}
{"Compound": "CC(C)(C)C[C@H](NC(=O)c1cn(-c2cccc(Cl)c2)nn1)C(=O)N1C[C@]2(C[C@H]1C#N)C(=O)Nc1ccccc12 [Example 142]", "pIC50": "6.00 to 7.00"}
{"Compound": "Cc1cccc2[nH]c(C(=O)N(C)[C@@H](CC(C)C)C(=O)N3C[C@]4(C[C@H]3C#N)C(=O)Nc3ccccc34)nc12 [Example 252]", "pIC50": "> 7.00"}
{"Compound": "CC(C)C[C@@H](C(=O)N1C[C@]2(C[C@H]1C#N)C(=O)Nc1ccccc12)N(C)C(=O)c1cccc(-c2ccccc2C#N)c1 [Example 278]", "pIC50": "> 7.00"}
{"Compound": "COc1cc(Cl)cc(C(=O)N(C)[C@@H](CC(C)C)C(=O)N2C[C@]3(C[C@H]2C#N)C(=O)Nc2ccccc23)c1 [Example 180]", "pIC50": "> 7.00"}
{"Compound": "COc1ccc(C(=O)N(C)[C@@H](CC(C)C)C(=O)N2C[C@]3(C[C@H]2C#N)C(=O)Nc2ccccc23)cc1F [Example 182]", "pIC50": "> 7.00"}
{"Compound": "CC(C)C[C@@H](C(=O)N1C[C@]2(C[C@H]1C#N)C(=O)Nc1ccccc12)N(C)C(=O)[C@@H](c1cnn(C)c1)C(C)C [Example 348]", "pIC50": "> 7.00"}
{"Compound": "COc1cccc(CN(C(=O)C(F)(F)F)[C@@H](CC(C)C)C(=O)N2C[C@]3(C[C@H]2C#N)C(=O)Nc2ccccc23)c1 [Example 430]", "pIC50": "< 6.00"}
{"Compound": "CC(C)C[C@@H](C(=O)N1C[C@]2(C[C@H]1C#N)C(=O)Nc1ccccc12)N(C)C(=O)c1cnccn1 [Example 200]", "pIC50": "> 7.00"}
{"Compound": "CC(C)C[C@H](NC(=O)c1cc2c(F)cccc2[nH]1)C(=O)N1C[C@]2(C[C@H]1C#N)C(=O)Nc1cccc(Cl)c12 [Example 528]", "pIC50": "6.00 to 7.00"}
{"Compound": "COc1ccc(C(=O)N(C)[C@@H](CC(C)C)C(=O)N2C[C@]3(C[C@H]2C#N)C(=O)Nc2ccccc23)nc1 [Example 193]", "pIC50": "6.00 to 7.00"}
{"Compound": "CC(C)C[C@@H](C(=O)N1C[C@]2(C[C@H]1C#N)C(=O)Nc1ccccc12)N(C)C(=O)c1c(Cl)ccc(Cl)c1F [Example 169]", "pIC50": "> 7.00"}
{"Compound": "CC(C)C[C@@H](C(=O)N1C[C@]2(C[C@H]1C#N)C(=O)Nc1ccccc12)N(C)C(=O)c1ccc(F)cn1 [Example 198]", "pIC50": "6.00 to 7.00"}
{"Compound": "CN(C(=O)c1cc2c(F)cc(F)cc2[nH]1)[C@@H](CC(C)(C)O)C(=O)N1C[C@]2(C[C@H]1C#N)C(=O)Nc1ccccc12 [Example 443]", "pIC50": "6.00 to 7.00"}
{"Compound": "CN(C(=O)[C@H](O)Cc1ccc(F)cc1)[C@@H](CC1CC1)C(=O)N1C[C@]2(C[C@H]1C#N)C(=O)Nc1ccccc12 [Example 423]", "pIC50": "> 7.00"}
{"Compound": "CC(C)C[C@@H](C(=O)N1C[C@]2(C[C@H]1C#N)C(=O)Nc1ccccc12)N(C)C(=O)c1ccc(C#N)c(Cl)c1 [Example 165]", "pIC50": "6.00 to 7.00"}
{"Compound": "CC(C)C[C@@H](C(=O)N1C[C@]2(C[C@H]1C#N)C(=O)Nc1ccc(Br)cc12)N(C)C(=O)c1cc2c(F)cc(F)cc2[nH]1 [Example 508]", "pIC50": "> 7.00"}
{"Compound": "CC(C)C[C@@H](C(=O)N1C[C@]2(C[C@H]1C#N)C(=O)Nc1ccc(-c3ccccn3)cc12)N(C)C(=O)c1cc2c(F)cc(F)cc2[nH]1 [Example 516]", "pIC50": "> 7.00"}
{"Compound": "[2H]C([2H])([2H])N(C(=O)c1cn(C2CC2)nn1)[C@@H](CC(C)(C)C)C(=O)N1C[C@]2(C[C@H]1C#N)C(=O)Nc1ccccc12 [Example 378]", "pIC50": "> 7.00"}
{"Compound": "[2H]C([2H])([2H])N(C(=O)c1cn(CC(F)(F)F)nc1C1CC1)[C@@H](CC1CC1)C(=O)N1C[C@]2(C[C@H]1C#N)C(=O)Nc1ccccc12 [Example 401]", "pIC50": "> 7.00"}
{"Compound": "CC(C)C[C@@H](C(=O)N1C[C@]2(C[C@H]1C#N)C(=O)Nc1ccccc12)N(C)C(=O)c1cccc2cccnc12 [Example 296]", "pIC50": "6.00 to 7.00"}
